- target_under_test: T1, Human C5 (human, UniProt P01031 19-1676)
- T1 construct: The natural protein has a beta and an alpha chain; also called complement factor 5; complement component 5
- test_details: SPR, mAb captured by anti-hFc, 25C
assay_readout: t½
Answer format: value, then unit.

## Task What value of t½ has been recorded for this entry: H4H12167P (antibody, human IgG4, V domains shown) VH: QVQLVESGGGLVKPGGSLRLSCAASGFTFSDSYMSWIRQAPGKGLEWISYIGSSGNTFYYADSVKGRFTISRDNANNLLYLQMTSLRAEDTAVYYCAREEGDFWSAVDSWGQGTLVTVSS VL: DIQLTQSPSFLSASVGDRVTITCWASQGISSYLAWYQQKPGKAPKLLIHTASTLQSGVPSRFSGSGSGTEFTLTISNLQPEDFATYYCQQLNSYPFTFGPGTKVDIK
## Result 1.47 h

This collection of values is drawn from patent US20170355757A1.
